Origin of values: patent US20210147523A1

Study Target: T1, Mutant 2 of human SPNS2 (FLAG tag inserted in extracellular loop 5) (human, UniProt Q8IVW8 1-549)
T1 construct: on HEK293 cells; also called extracellular loop 5 mutant
T1 sequence: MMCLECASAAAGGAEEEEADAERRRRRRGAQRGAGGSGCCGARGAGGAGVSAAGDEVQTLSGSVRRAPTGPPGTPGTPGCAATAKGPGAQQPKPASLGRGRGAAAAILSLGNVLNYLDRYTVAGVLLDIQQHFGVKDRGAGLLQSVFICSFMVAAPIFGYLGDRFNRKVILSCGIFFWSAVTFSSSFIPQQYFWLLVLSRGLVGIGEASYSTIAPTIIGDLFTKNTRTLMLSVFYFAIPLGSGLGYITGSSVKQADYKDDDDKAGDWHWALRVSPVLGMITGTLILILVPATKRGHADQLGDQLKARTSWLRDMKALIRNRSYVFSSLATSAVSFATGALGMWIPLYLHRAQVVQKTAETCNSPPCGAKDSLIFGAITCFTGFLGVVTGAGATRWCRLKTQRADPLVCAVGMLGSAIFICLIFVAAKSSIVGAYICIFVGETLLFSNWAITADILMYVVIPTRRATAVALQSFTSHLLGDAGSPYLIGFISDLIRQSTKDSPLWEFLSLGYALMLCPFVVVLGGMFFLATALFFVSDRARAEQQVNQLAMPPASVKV
Protocol Notes: flow cytometry, FLAG-insertion mutant
We begin with a simple list: items and their reported FITC+/Alexa 647+ cell rate ratio.
Property Measured: FITC+/Alexa 647+ cell rate ratio

• 93-1310F (antibody, IgG2b, V domains shown) VH: EVQLVETGGGLVQPGSSLKLSCATSGFTFSDTWMSWVRQAPGKGLEWVALIKDKNSNYEANYAESVKGRFTISRDDSKRRVYLQMFTLRDQDTATYYCTSHEDFYYYSSYYFDYWGHGVMVTVSS VL: DIVLTQSPATLSVTPGESVSLSCRASQGISTSIHWYQQKSNGSPRLLIKYASQSISGIPSRFSGSGSGTDFTLRINRVESEDFSVYYCQQTYSLPLTFGSGTRLEIKR = ≥ 0.5 ratio
• 64-0807A (antibody, IgG2b, V domains shown) VH: EVQVVESGGGLVQPGRSMKLSCAALGFTFRDYYMAWVRQTPTKGLEWVAAISTGGGNTYYRDSVKGRFTISRDNAKSTLYLQMDSLRSDDTATYYCARNPYGNYFDYWGQGVMVTVSS VL: QFVLSQPNSVSTNLGSTVKLSCKRSTGNIGSNYVHWYQRHEGRSPTTLIYRDDKRPNGVPDRFSGSIDRSSNSALLTINNVQTEDEADYFCQSYSGGMYLFGGGTKLTVL = < 0.1 ratio
• 18-0211B (antibody, IgG2b, V domains shown) VH: AVQLVGSGGGLVQPGRSMKLSCEASGFTFSNHYMAWVRQAPTRGLEWVATISTGGGNTYYRDSVKGRFTISRDNTRSTLSLQMDSLRSEDTATYYCTRQDYTNYMGGFAYWGQGTLVTVSS VL: QFVLTQPNSVSTNLGSTVKLSCTRSIGNIGNNYVNWYKQYEGRSPTTLIYRDDERPDGVPDRFSGSIDRSSNSALLTINSVQTEDGADYFCQSFSSGIFIFGGGTTLTVL = < 0.1 ratio
• 53-0707E (antibody, IgG2b, V domains shown) VH: EVQLQQSGAELVRPRTSVKLSCKVSGDSITRYYVHFVKQRPGQGLEWIGRIDPEDDTTKYSEKFKKKATLTADASSNTAYLIFSGLTSEDTATYFCSTLTGLDYWGQGVMVTVSS VL: DIQMTQSPPVLSTSVGDRVTLRCKASQNVHSKLDWYQQKHGEAPKLLIYYTHNLQTGIPSRFSGSGSGTDYTLTISSLQPEDVATYYCFQYYSGWTFGGGTKLEMKR = < 0.1 ratio
• 49-0703G (antibody, IgG2b, V domains shown) VH: EVQLVESGGGLVQPGRSMKLSCAASGFTFSNHYMAWVRQAPTKGLEWVASISTGGGNTYYRDSVKGRFTISRDNAKSTLYLQMDSLRSEDTATYYCARQDYSNYMGGFAYWGQGTLVTVSS VL: QFVLTQPNSVSTNLGSTVKLSCKRSTGNIGNNYVNWYQQYEGRSPTTMIYRDDERPDGVPDRFSGSIDRSSNSALLTINNVQTEDEADYFCQSFSNGMFIFAGGTQLTVL = < 0.1 ratio
